Just for reference, patent US20230012273A1 is where these values come from.

molecular target: T1, Human SIRPαV1 (NP_542970.1), Extracellular Domain + His-Tag (human, UniProt P78324 31-373); assay: SPR, antibody captured on Protein A/G, ECD-His analyte, 1:1 fit
T1 construct: also called huSIRPαV1; hSIRPαV1; not shown: His-Tag
T1 sequence (P78324 other isoform, or with tags, fused parts or gaps): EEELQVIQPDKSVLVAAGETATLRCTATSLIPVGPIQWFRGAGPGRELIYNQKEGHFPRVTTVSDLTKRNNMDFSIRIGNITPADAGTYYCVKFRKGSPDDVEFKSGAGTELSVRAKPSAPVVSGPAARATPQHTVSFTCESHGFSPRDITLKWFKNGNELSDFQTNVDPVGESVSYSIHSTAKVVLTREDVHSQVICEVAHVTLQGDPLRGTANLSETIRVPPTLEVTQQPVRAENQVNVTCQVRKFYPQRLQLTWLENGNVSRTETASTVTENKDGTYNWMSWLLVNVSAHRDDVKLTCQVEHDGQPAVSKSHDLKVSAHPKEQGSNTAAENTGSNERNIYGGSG
property: Kd (nM)
Express the result in nM but write the number alone.

# query: Kd of entry Antibody E10 (antibody, human IgG1, kappa, L234A L235A, V domains shown) VH: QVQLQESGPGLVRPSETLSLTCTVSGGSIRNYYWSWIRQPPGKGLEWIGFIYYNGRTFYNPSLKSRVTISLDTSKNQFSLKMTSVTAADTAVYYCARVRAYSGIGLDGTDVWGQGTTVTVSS VL: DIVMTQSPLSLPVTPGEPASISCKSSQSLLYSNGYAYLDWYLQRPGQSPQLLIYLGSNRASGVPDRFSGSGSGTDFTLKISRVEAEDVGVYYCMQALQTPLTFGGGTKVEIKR 1.23

Return reported Kd; argument: Antibody A12 (antibody, human IgG1, kappa, L234A L235A, V domains shown) VH: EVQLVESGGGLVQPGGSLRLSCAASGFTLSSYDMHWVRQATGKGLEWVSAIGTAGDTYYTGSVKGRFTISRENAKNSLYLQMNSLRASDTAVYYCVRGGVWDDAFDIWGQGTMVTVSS VL: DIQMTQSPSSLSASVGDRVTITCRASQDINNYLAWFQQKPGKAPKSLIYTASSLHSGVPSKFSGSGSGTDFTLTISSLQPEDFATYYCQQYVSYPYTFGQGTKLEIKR 7.83

I have this binder here, Antibody A6 (antibody, human IgG1, kappa, L234A L235A, V domains shown) VH: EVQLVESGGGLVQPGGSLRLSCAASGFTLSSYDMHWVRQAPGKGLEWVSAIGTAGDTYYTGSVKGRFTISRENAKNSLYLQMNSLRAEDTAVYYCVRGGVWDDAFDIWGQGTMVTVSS VL: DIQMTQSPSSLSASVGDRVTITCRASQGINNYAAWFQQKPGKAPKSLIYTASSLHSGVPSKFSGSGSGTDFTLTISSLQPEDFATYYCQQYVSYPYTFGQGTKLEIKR , and I need its recorded Kd. 8.28
